- Tested on: Colon cancer organoid
- experiment: Identification of compartment-specific drug sensitivities in O06 CRC organoid-stroma F06 CAF co-cultures. Organoid is transduced with Lucferase2-P2A-EGFP lentivirus, fibroblast with Renilla-dsRed lentivirus. Dual-Glo Luciferase assay is used to report viability data.
- Format: functional, Homo sapiens
- Parameters: dose or concentration left out as unconfirmed
- applied conditions: Transduced with Renilla-dsRed lentivirus
Consider the cut-off 80%. If the recorded Cell Viability is strictly smaller, the label is rule met; if not, the label is rule not met.

Reference set, count: 6
chemical structure: CN[C@@H]1C[C@H]2O[C@@](C)([C@@H]1OC)n1c3ccccc3c3c4c(c5c6ccccc6n2c5c31)C(=O)NC4
label value: rule met

chemical structure: CCOc1ccn(-c2ccc(F)cc2)c(=O)c1C(=O)Nc1ccc(Oc2ccnc(N)c2Cl)c(F)c1
label value: rule not met

chemical structure: Cn1cc(-c2ccc3occ(-c4ccccc4-c4ccccc4)c3n2)cn1
label value: rule not met

chemical structure: C=CC(=O)Nc1ccc2[nH]c(=O)n(C3CCN(C(=O)c4ccc(-c5nc6cc[nH]c(=O)c6cc5-c5ccccc5)cc4)CC3)c2c1
label value: rule not met

chemical structure: COc1c(OCCCN2CCOCC2)ccc2c1N=C(NC(=O)c1cnc(N)nc1)N1CCN=C21
label value: rule met

chemical structure: C[C@H](c1ccc(F)cc1)N(Cc1ccc(Cl)c(C(=O)O)c1)C(=O)c1cnc2ccccc2c1
label value: rule met

Consider now this further molecule.
[ask] Consider the molecule `CO[C@@H](C)c1c(Nc2ccc([C@H](N(C)C(=O)C3CCS(=O)(=O)CC3)C(F)(F)F)cc2)cnc2cc(Cl)nn12` . Is its Cell Viability strictly less than 80%?
[reply] rule not met

###

- Test system: Colon cancer organoid
- experiment: Identification of compartment-specific drug sensitivities in O20 CRC organoid-stroma F20 CAF co-cultures. Organoid is transduced with Lucferase2-P2A-EGFP lentivirus, fibroblast with Renilla-dsRed lentivirus. Dual-Glo Luciferase assay is used to report viability data.
- Type: functional, Homo sapiens
- Set-up: dose or concentration left out as unconfirmed
- applied conditions: Transduced with Lucferase2-P2A-EGFP lentivirus
value type: Cell Viability (%)
Give bare numbers, in %.

compound: CN(C)C(=O)Cn1cc(-c2nc(C3(c4ccc(-c5cnc(N)nc5)cc4)CC3)no2)cn1
assay system: Colon cancer organoid
unit text: %
Cell Viability: 119.435

compound: Cc1ccc2[nH]c(CNCCCc3ccncc3)cc(=O)c2c1 [UCSF924NC]
assay system: Colon cancer organoid
unit text: %
Cell Viability: 121.808

Field: Cell Viability. Fill in for each record below.
1. CC1(C)C(N)=Nc2cc(OCCCN3Cc4ccc(OCCc5cn(CC(=O)N6CCC(CCN7CCCC7)CC6)nn5)cc4C3)c(OCC3CC3)cc21
2. Cn1cc(Cl)c2c(Oc3c(F)cc(Nc4cc(Cl)nc(N)n4)cc3F)ccnc21
3. Cn1c(C2(NC(=O)c3ccc4c(C5CCCC5)c(-c5ncc(Br)cn5)n(C)c4c3)CCC2)nc2ccc(/C=C/C(=O)O)cc21
4. CC(C)NC(=O)N1CC[C@H](NC2=Nc3cc(F)ccc3N(CC(F)F)c3ccc(Cl)cc32)C1
5. Cc1cc(CN)cc(C)c1-c1ncn(C)c1-c1ccnc2cc(F)ccc12.Cl
6. O=C(/C=C/N1C[C@H]2C[C@@H]1CN2c1ccccn1)c1ccccc1O

[reply]
1: 95.5615; 2: 91.1614; 3: 79.9036; 4: 55.1322; 5: 144.981; 6: 99.3831

Field: Cell Viability. Fill in for each record below.
1. Nc1nc(NCc2ccccc2)nc(-c2cccc(CO)c2)n1
2. CNc1cc(Oc2cc(C(=O)Nc3cc(N4CCN(C)CC4)cc(C(F)(F)F)c3)ccc2C)ncn1
3. C=CC(=O)N1CCC([C@@H]2CCNc3c(C(N)=O)c(-c4ccc(Oc5ccccc5)cc4)nn32)CC1
4. Cc1cc(F)c(C(=O)Nc2cccc(-c3nncn3C(C)C)n2)cc1-n1cnc(C2CC2)c1
5. CCCc1cc(C)[nH]c(=O)c1CNC(=O)c1cc(-c2ccnc(N3CCN(C)CC3)c2)cc2c1cnn2C(C)C
6. COc1cc(N(C)c2ccnc3ccc(C(F)(F)F)cc23)cc(OC)c1OC
7. Clc1cc2c(NC3CCCC3)nnc(-c3ccncc3)c2cc1Cl
8. CN(C)C(=O)N1CC[C@H](NC2=Nc3cc(F)ccc3N(CC(F)F)c3ccc(Cl)cc32)C1

[reply]
125.25
163.613
8.4337
141.758
56.2508
76.7382
149.848
71.357

Field: Cell Viability. Fill in for each record below.
1. CCOC(=O)c1c(/C(C#N)=C\N)c2ccc(Cl)c(Cl)c2n1C
2. C[C@@H](c1cccc(CN)c1)n1cc(Cl)cc(C(N)=O)c1=N.Cl

[reply]
[91.9928, 85.1763]

###

- Test system: Colon cancer organoid
- experiment: Identification of compartment-specific drug sensitivities in O20 CRC organoid-stroma F20 CAF co-cultures. Organoid is transduced with Lucferase2-P2A-EGFP lentivirus, fibroblast with Renilla-dsRed lentivirus. Dual-Glo Luciferase assay is used to report viability data.
- Assay type: functional, Homo sapiens
- Design: dose or concentration left out as unconfirmed
- applied conditions: Transduced with Renilla-dsRed lentivirus
Assignment: determine reported Cell Viability for the given compounds.

Sample answers from the record:
chemical structure: CNCc1ccccc1-c1csc([C@@H](C)Nc2nc(C)nc3cc(OC)c(OC)cc23)c1
assay system: Colon cancer organoid
Cell Viability: 145.24%
--
chemical structure: Cc1c(Nc2ccc(S(=O)(=O)N3CCN(C)CC3)cc2F)nc2ccc(-c3cnn(C4CC4)c3)cn2c1=O
assay system: Colon cancer organoid
Cell Viability: 149.535%
--
chemical structure: Cn1nc(C(F)(F)F)cc1-c1cnc(N2CCc3cc(S(=O)(=O)Nc4c(F)cc(Cl)cc4F)cc(N4CCCC4=O)c32)nc1
assay system: Colon cancer organoid
Cell Viability: 95.2287%

# ---- query compound ----
[ask] Which measured Cell Viability belongs to `CC(C)(O)[C@H](F)CN1Cc2cc(NC(=O)c3cnn4cccnc34)c(N3CCOCC3)cc2C1=O` , tested on Colon cancer organoid?
[reply] 88.3121%

###

Assignment: determine reported Cell Viability for the given molecules.
- System: Colon cancer organoid
- experiment: Identification of compartment-specific drug sensitivities in O20 CRC organoid-stroma F20 CAF co-cultures. Organoid is transduced with Lucferase2-P2A-EGFP lentivirus, fibroblast with Renilla-dsRed lentivirus. Dual-Glo Luciferase assay is used to report viability data.
- Type: functional, Homo sapiens
- Parameters: dose or concentration left out as unconfirmed
- applied conditions: Transduced with Lucferase2-P2A-EGFP lentivirus
One number for each entry, in %.

Sample answers from the record:
molecule: CC(C)Oc1ccc(-c2c[nH]cc2CN(C)CCN)cc1
value type: Cell Viability
val: 47.8011
//
molecule: CC[C@@H]1CN(C(=O)NCC(F)(F)F)C[C@@H]1c1cnc2cnc3[nH]ccc3n12
value type: Cell Viability
val: 123.879
//
molecule: COc1ncc(-c2ccc3nccc(-c4ccnnc4)c3c2)cc1NS(=O)(=O)c1ccc(F)cc1F
value type: Cell Viability
val: 2.282
//
molecule: COc1cc(N2CCC(O)CC2)ccc1Nc1cc(Nc2ccccc2S(=O)(=O)C(C)C)c2cc[nH]c2n1
value type: Cell Viability
val: 108.341
//
molecule: CO[C@@H](C)c1c(Nc2ccc([C@@H](N(C)C(=O)C3CCS(=O)(=O)CC3)C(F)(F)F)cc2)cnc2cc(Cl)nn12
value type: Cell Viability
val: 83.7008
//
molecule: C=CC(=O)Nc1ccc2[nH]c(=O)n(C3CCN(Cc4ccc(-c5ccc6c(c5)NC(=O)CO6)cc4)CC3)c2c1
value type: Cell Viability
val: 101.642
//
molecule: N#CN1CC[C@@H](C(=O)Nc2nc3c(s2)CN(C(=O)CN=[N+]=[N-])CC3)C1
value type: Cell Viability
val: 64.1943
//
molecule: C[C@@H](c1cccc(C#N)c1)n1cc(Cl)cc(C(N)=O)c1=N.Cl
value type: Cell Viability
val: 64.4613
//
molecule: CCS(=O)(=O)c1cc2cc(C[C@](O)(CC(C)(C)c3ccc(F)cc3C(N)=O)C(F)(F)F)[nH]c2cn1
value type: Cell Viability
val: 85.6205
//
molecule: CCc1cccc(CC)c1NC(=O)c1nn(C)c2c1CCc1cnc(Nc3ccc(C(=O)NC4CCN(C)CC4)cc3OC(F)(F)F)nc1-2
value type: Cell Viability
val: 94.5822

Field: Cell Viability. Fill in for each record below.
1. Cc1nc(C2CCN(C(=O)c3ccc(OC(F)(F)F)cc3N)CC2)c2ncc(N3CCN(C)CC3)cc2n1
2. CNC(=O)c1ccc(Nc2ncc(C(F)(F)F)c(NCc3nccnc3N(C)S(C)(=O)=O)n2)cc1
3. FC(F)(F)c1ccc2c(c1)nc(-c1cccnc1)n2C1CC1 [MSD-CYP11B2-Negative-control]
4. N#CN1CC[C@H](C(=O)Nc2nc3c(s2)CN(C(=O)CN=[N+]=[N-])CC3)C1
5. CNC(=O)c1cc(C(=O)NC2CC2)cn(Cc2ccccc2)c1=O
6. COc1ccc(COc2ccc(Cc3cnc(N)nc3N)cc2OC)cc1 [GW632580X]
7. COc1cc(-c2cn([C@H]3CCc4c(F)cccc4N(CC(F)(F)F)C3=O)nn2)ccc1-n1cnc(C)c1

[reply]
1: 93.6142; 2: 57.0475; 3: 98.4614; 4: 67.6209; 5: 93.0444; 6: 200.298; 7: 119.382
